TESTED_TARGET: T1, human Trop-2 (on the surface of human cell lines) (human, UniProt P09758 27-323)
T1 construct: Endogenous Trop-2 on NCI-H322, Capan-1, PC-3, HUVEC, OVCAR-3, HCC38 and HCC1806 cells; also called TACSTD2
T1 sequence: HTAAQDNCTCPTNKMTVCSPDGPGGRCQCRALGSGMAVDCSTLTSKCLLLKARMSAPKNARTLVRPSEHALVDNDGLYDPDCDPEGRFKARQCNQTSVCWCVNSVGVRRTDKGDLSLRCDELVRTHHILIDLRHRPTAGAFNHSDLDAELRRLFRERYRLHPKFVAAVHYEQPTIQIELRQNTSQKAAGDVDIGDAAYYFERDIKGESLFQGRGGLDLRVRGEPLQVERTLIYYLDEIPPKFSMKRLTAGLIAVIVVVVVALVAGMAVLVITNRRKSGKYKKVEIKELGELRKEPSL
METHOD: flow cytometry, HCC38 cells
MEASUREMENT_LABEL: pEC50
# reply with the number alone; pEC50 is -log10 of concentration in mol/L

Problem: Sample ch-Ab35 (antibody, human IgG1, kappa, V domains shown, Mouse VH/VL on human IgG1 and human kappa constant regions; also called chimeric antibody of Ab35) VH: EVQLQQSGPDLVRPGASVKLSCKASGYTFTSSDINWVKQRPGQGLEWIGWIYPRDGSKKYNEKFKGKATLTVDTSSSTAYMEVHSLTSEDSAVYFCATRFATVVSNYGLDPWGQGTSVTVSS VL: AIVLTQSPAIMSASPGEKVTMTCSASSSVNYIYWYQRKPGSSPRLLIYDTSNLASGVPVRFSGSGSGTSYSLTISRMEAEDAATYYCQQWNSYPLTFGAGTKLELKR — what was its pEC50?
Solution: 9.35

Problem: Sample hz-Ab35-2.2 (antibody, human IgG1, kappa, V domains shown, Humanized antibody) VH: QVQLVQSGAEVKKPGASVKVSCKASGYTFTSSDINWVRQRPGQGLEWMGWIYPRDGSKKYNEKFKGRVTMTVDTSTSTVYMELSSLRSEDTAVYYCARRFATVVSNYGLDPWGQGTLVTVSS VL: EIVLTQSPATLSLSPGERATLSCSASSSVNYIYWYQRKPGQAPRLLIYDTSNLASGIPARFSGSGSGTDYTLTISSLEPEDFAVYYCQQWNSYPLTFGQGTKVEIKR — what was its pEC50?
Solution: 9.04

Problem: Sample hz-Ab35-2.1 (antibody, human IgG1, kappa, V domains shown, Humanized antibody) VH: QVQLVQSGAEVKKPGASVKVSCKASGYTFTSSDINWVRQRPGQGLEWMGWIYPRDGSKKYAQKFQGRVTMTVDTSTSTVYMELSSLRSEDTAVYYCATRFATVVSNYGLDPWGQGTLVTVSS VL: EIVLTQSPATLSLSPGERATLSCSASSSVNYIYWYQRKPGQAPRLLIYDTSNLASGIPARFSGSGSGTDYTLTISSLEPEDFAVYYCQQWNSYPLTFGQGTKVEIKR — what was its pEC50?
Solution: 9.05

Problem: Sample hz-Ab21-2.2 (antibody, human IgG1, kappa, V domains shown, Humanized antibody) VH: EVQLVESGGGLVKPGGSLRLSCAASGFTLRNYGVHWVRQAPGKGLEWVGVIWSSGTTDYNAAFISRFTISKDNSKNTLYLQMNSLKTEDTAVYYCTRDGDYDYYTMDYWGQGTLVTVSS VL: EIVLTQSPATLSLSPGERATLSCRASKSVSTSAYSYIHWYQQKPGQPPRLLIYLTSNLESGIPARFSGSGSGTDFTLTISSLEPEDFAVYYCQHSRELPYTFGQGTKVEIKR — what was its pEC50?
Solution: 9.18

Problem: Sample hz-Ab21-1.1 (antibody, human IgG1, kappa, V domains shown, Humanized antibody) VH: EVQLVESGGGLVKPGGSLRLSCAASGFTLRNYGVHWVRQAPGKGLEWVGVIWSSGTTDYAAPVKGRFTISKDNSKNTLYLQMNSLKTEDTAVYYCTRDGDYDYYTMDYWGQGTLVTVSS VL: EIVLTQSPATLSLSPGERATLSCRASKSVSTSAYSYIHWYQQKPGQAPRLLIYLTSNLESGIPARFSGSGSGTDFTLTISSLEPEDFAVYYCQHSRELPYTFGQGTKVEIKR — what was its pEC50?
Solution: 9.26
